target: BGT1 E52A (Homo sapiens, UniProt P48065, E52A); construct: expressed in transfected cells; host or cells: tsA201 (transformed HEK293), transient; assay: [3H]GABA uptake assay, transient expression in tsA201 cells; assay type: cell-based; settings: BGT1 E52A
Sequence (P48065 whole entry E52A): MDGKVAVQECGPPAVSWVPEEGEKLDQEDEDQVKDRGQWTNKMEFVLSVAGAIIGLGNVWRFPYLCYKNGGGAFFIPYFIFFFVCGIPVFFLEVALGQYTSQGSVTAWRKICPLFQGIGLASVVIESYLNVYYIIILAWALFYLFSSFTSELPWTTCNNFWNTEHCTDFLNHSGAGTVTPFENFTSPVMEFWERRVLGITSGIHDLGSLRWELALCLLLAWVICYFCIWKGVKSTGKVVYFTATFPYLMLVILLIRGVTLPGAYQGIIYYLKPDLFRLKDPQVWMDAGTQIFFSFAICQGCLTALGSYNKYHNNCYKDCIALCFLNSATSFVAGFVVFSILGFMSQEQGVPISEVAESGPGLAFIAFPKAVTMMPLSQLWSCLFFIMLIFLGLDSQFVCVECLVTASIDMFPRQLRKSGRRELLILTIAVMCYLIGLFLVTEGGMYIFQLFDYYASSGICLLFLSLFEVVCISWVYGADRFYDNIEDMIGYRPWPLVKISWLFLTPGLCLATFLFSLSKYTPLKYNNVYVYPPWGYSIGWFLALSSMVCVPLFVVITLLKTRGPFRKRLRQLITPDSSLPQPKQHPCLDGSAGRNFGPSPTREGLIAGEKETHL

# smiles.representation, IC50
measured = [
    ("N[C@@]12CC[C@H](C(=O)O)[C@@H]1C2", "~40 nM"),
]

----------
molecular target: BGT1 E52A (Homo sapiens, UniProt P48065, E52A); construct: expressed in transfected cells; host or cells: tsA201 (transformed HEK293), transient; test: [3H]GABA uptake assay, transient expression in tsA201 cells; assay type: cell-based; settings: BGT1 E52A, tsA201 cells
pIC50: −log10 of the molar value.
Overview of recorded pIC50 for various molecules

# smiles.representation, test.target, pIC50
data = [
    ("CN[C@@]12CC[C@H](C(=O)O)[C@@H]1C2", "BGT1 E52A (Homo sapiens, UniProt P48065, E52A)", 6.92),
    ("N[C@@]12CC[C@H](C(=O)O)[C@@H]1C2", "BGT1 E52A (Homo sapiens, UniProt P48065, E52A)", 7.40),
]
